# Test system: HOP-62 NSCLC
# test details: NCI-60 one-dose screen, 48 h
# condition context: 10 µM unless noted
The panel holds about 83,000 compounds, 20% with a hit somewhere; the sample as a whole holds those more often. Activity calls are given as the source filed them. Rule for the calls: active = growth percent below 10; inactive = the rest.
Form entry, call: pick from active, inactive

Solved cases (3 shown):
molecule | class name
CN1CCN(Cc2ccc(NC(=O)c3ccc(C#N)c(C#Cc4cnc(N)c5ncccc45)c3)cc2C(F)(F)F)CC1 | inactive
Nc1nc(N)c2cc(Sc3ccc(Cl)cc3)ccc2n1 | inactive
OC(c1cc2cc(Cl)ccc2c2cc(C(F)(F)F)ccc12)C1CCCCN1 (stereo unspecified) | active

Please turn your attention to the following entry.
For `Cc1ccc(O)c(Cc2ccccc2)c1` , what call appears in the results of this test?
inactive

###

# System: OVCAR-8 ovarian
# test details: NCI-60 one-dose screen, 48 h
# condition context: 10 µM unless noted
About 83,000 compounds went through this panel and 20% of them were active in at least one assay; those are over-represented in the sample as a whole. Activity calls are given as the source filed them. How the source made its calls: active means growth percent below 10; inactive means the rest.
Your reply should match one of these outcome classes. 1 for active, -1 for inactive

// known answers, use as guide
compound | class name
COCCOCCOCc1n(Cc2ccc3ccccc3n2)c2ccccc2[n+]1Cc1ccc2ccccc2c1 | 1
CC1(C)CC[C@]2(C(=O)N3CCNCC3)CC[C@]3(C)C(=CC[C@@H]4[C@@]5(C)CCC(=O)C(C)(C)[C@@H]5CC[C@]43C)[C@@H]2C1 | -1
COc1c(C(=O)/C=C/c2ccc(C)o2)c(O)cc2occc12 | -1
Nc1ccc(N(O)/C=C2\C=CC=CC2=O)cc1N | -1
CCOC(=O)Nc1ccc2nc(-c3cscn3)[nH]c2c1 | -1
COc1cc2nccc(Oc3ccc(NC(=O)C4(C(=O)Nc5ccc(F)cc5)CC4)cc3)c2cc1OC(=O)c1ccc(N)cc1 | -1
O=C(CCc1nc2sc3c(c2c(=O)[nH]1)CCC3)NCc1cn(-c2ccccc2)nc1-c1ccccc1 | -1
CCCc1cc2c(cc1CN(Cc1cc3c(cc1CCC)OCO3)C(=N)OCC)OCO2 | -1

Given `CCCCn1c(-c2ccc(F)cc2)nc2cc(OC)c(OC)cc2c1=O` , state the outcome it received in this test.
-1

Any idea what this test logged for `CCCCCNCCCCCNc1cc(OC)cc2cccnc12` ?
-1

###

# System: OVCAR-8 ovarian
# test details: NCI-60 one-dose screen, 48 h (100 = growth as untreated, 0 = no growth, -100 = all killed)
# condition context: 10 µM unless noted
This is part of a sample that, as a whole, favours compounds with a hit. Of some 83,000 tested, about 20% had one in any assay.
measured parameter: growth (%)
Express it in %; write the number only.

Need growth, item `COc1c(-c2cc(-c3ccc(C)o3)[nH]c(=O)n2)c(O)cc2occc12`
73

I would be grateful if you could share the reported growth for `NC(N)=N/N=C\c1cccc(OCc2ccccc2)c1` .
89.3

What value of growth has been reported for the following compound? N#Cc1c(NN)n(C2OC(CO)C(O)C2O)c2ncnc(N)c12 (stereo unspecified)
0.0898

Field request: growth | item: `Cn1c(=O)c2c3c(oc2c2ccccc21)C(=O)c1ccccc1C3=O`
85.3

Reported growth, compound `CN(C)c1ccc(Nc2c3ccccc3nc3ccccc23)cc1` : ____
23.5

For the compound `CCOC(=O)c1ccc(NC(=O)NC2=NCCS2)cc1` , what growth is on record?
27.1

###

Measured growth, listed per entry for reference.
# Test system: SF-539 CNS
# test details: NCI-60 one-dose screen, 48 h (100 = growth as untreated, 0 = no growth, -100 = all killed)
# condition context: 10 µM unless noted
This is part of a sample that, as a whole, favours compounds with a hit. Of some 83,000 tested, about 20% had one in any assay. Calls of active or inactive are those of the source. The calls were made as follows: active = growth percent below 10; inactive = the rest.

Worked examples, 4 compounds total:
compound | measured parameter | result
O=C(CCCCCCc1nc2ccc(Br)cc2[nH]1)NO | growth | 17.8% (inactive)
COc1cc2c(cc1OCCCOc1cc3c(cc1OC)C(=O)N1CCC[C@H]1C=N3)C=CC(C)(C)O2 | growth | 126% (inactive)
Nc1nc2c(c3ncccc13)C(c1ccccc1)Cc1ncccc1-2 (centres undefined) | growth | 78.1% (inactive)
CCCc1cc2c(cc1CN(Cc1cc3c(cc1CCC)OCO3)C(=N)OCC)OCO2 | growth | 112% (inactive)

What value of growth has been reported for the following compound? `F`
-13% [6.87 mM] (active)

###

# System: HOP-62 NSCLC
# test details: NCI-60 one-dose screen, 48 h (100 = growth as untreated, 0 = no growth, -100 = all killed)
# condition context: 10 µM unless noted
Compounds without any hit were thinned out: in the full panel of roughly 83,000, 20% have a hit.
# note: exactly 90% is not below, so it is criterion not met; use criterion met for growth strictly under it

compound | class name
COc1cccc(NC(=O)c2c(-c3ccccc3)c(-c3ccccc3)n[nH]c2=O)c1 | criterion not met
O=C(O)c1cn(-c2ccccc2)nc1-c1ccc(O)cc1 | criterion not met
CCOC(=O)C1=C(C)NC(SCc2nnc(-c3ccc(Cl)cc3)o2)=NC1c1ccc(Cl)cc1 (centres undefined) | criterion not met
COc1ccc(C(=O)/C=C/c2cn(-c3ccccc3)nc2-c2cccc(Nc3ccnc4cc(Cl)ccc34)c2)cc1 | criterion not met
COc1ccc2c(c1)CCCC21C(=O)Nc2c(Cl)cccc21 (centres undefined) | criterion met
CCOC(=O)c1ccc(N(CCC(=O)O)C(C)=O)cc1 | criterion not met
CCOC(=O)c1ccccc1SC(C[N+](=O)[O-])c1ccccc1 (centres undefined) | criterion not met
COCCOCCOCc1n(Cc2ccc3ccccc3n2)c2ccccc2[n+]1Cc1ccc2ccccc2c1 | criterion met

Does the reported growth of COC1=CC(c2ccc[nH]2)=N/C1=C\c1[nH]c(C)c(C(=O)CCCCCCCCC(=O)O[C@H]2CC[C@H]3C4CCc5cc(O)ccc5C4CC[C@]23C)c1C (some centres undefined) stay below 90%?
criterion met

###

# Tested on: CAKI-1 renal
# test details: NCI-60 one-dose screen, 48 h
# condition context: 10 µM unless noted
This is part of a sample that, as a whole, favours compounds with a hit. Of some 83,000 tested, about 20% had one in any assay. Activity calls are given as the source filed them. How the source made its calls: active means growth percent below 10; inactive means the rest.
I would appreciate it if you answered using one of these outcomes: YES (active), NO (inactive)

compound | class name
CCNC(=S)N(Cc1ccccc1)Cc1ccccc1 | NO

Okay, now this compound:
Hey, what did the test say about `COc1cc(Nc2ccnc3ccc(Br)cc23)cc(OC)c1OC` ?
NO

###

Entries and their measured growth follow.
# Test system: MCF7 breast
# test details: NCI-60 one-dose screen, 48 h (100 = growth as untreated, 0 = no growth, -100 = all killed)
# condition context: 10 µM unless noted
The panel holds about 83,000 compounds, 20% with a hit somewhere; the sample as a whole holds those more often.
Reply numerically in %, unit not repeated.

// worked examples, growth included
compound | assayed target | growth, %
COc1ccc([C@@H]2[C@@H](Oc3ccccc3)C(=O)N2c2cc(OC)c(OC)c(OC)c2)cc1F | MCF7 breast | 14.1
NCCCOc1cc2ccccc2cc1C(=O)NCCCOc1cc2ccccc2cc1C(=O)Nc1ccc(Cl)cc1O | MCF7 breast | -93.5
C=CC[C@]1(O)CC[C@H]2[C@@H]3CCc4cc(O)ccc4[C@H]3CC[C@@]21C | MCF7 breast | 116
NC(=Nc1ccccc1)SCCCSC(N)=Nc1ccccc1 | MCF7 breast | 90.9
C/C=C(\C)C(C(=O)NC1CCCCC1)N(C(=O)C1CCc2cc(F)ccc2O1)c1ccc([N+](=O)[O-])cc1 (stereo not drawn) | MCF7 breast | 77

What measured growth goes with COc1ccc(C2CC(c3ccc(Nc4ccnc5cc(Cl)ccc45)cc3)=NN2c2ccccc2)cc1 (stereo not drawn) ?
81.9

Given `COc1cccc(/C=N/N=C(N)N)c1` , state its recorded growth.
100

// lookup growth for `Brc1ccccc1Cn1c(-c2cncs2)nc2ccccc21`
98.9

Look at this compound and give its reported growth. COc1cc(C2CC(c3ccc(Cl)cc3)=NN2C=O)ccc1OS(=O)(=O)c1ccc(C)cc1 (stereo not drawn)
78.9

Value lookup for growth; key = `CN1CCN(Cc2ccc(NC(=O)c3cnc(F)c(C#Cc4cnc(N)c5ncccc45)c3)cc2C(F)(F)F)CC1`
42.6

Param item = `Cc1cc2nc3c(=O)[nH]c(=O)nc-3n(CC=O)c2cc1C` ; retrieve measured growth.
99

Query: growth; subject: `CCOC(=O)c1sc2nc(-c3cc4ccccc4o3)cc(-c3ccc(Cl)cc3)c2c1N`
110

What value of growth has been reported for the following compound? `CCN(CC)c1ccc2nc3c4ccccc4c(=O)cc-3n(-c3ccccc3)c2c1`
-7.24

###

# System: HCT-116 colon
# test details: NCI-60 one-dose screen, 48 h (100 = growth as untreated, 0 = no growth, -100 = all killed)
# condition context: 10 µM unless noted
The panel holds about 83,000 compounds, 20% with a hit somewhere; the sample as a whole holds those more often.
Please note: class 1 applies when growth is 20% or greater, and class 0 applies otherwise.

Here are 10 compounds together with their reported answers.
compound | class name
CC[C@H](Nc1nc(N)nc(N)c1Cl)c1nc2cccc(NCc3ccc(C(=O)NO)cc3)c2c(=O)n1-c1ccccc1 | class 0
Cc1cc(C)c(C#N)c(SCC(=O)c2sc3c(C#N)c(C)cc(C)[n+]3c2[O-])n1 | class 0
COc1ccc(C2=Nn3c(nnc3-c3ccc(Cl)cc3N)SC2)cc1 | class 1
CCN(CC)CCCNc1cccc2c(C)cc(OC)nc12 | class 1
Nc1n[nH]c2ccc([C@@H]3Nc4c(F)cc5[nH]ncc5c4[C@H]4C5CCC(C5)[C@@H]34)cc12 (stereo not given in full) | class 0
COc1ccc(-c2[nH]nc(N)c2-c2cc(OC)c(OC)c(OC)c2)cc1 | class 0
N#CC1=C(N)Oc2nc[nH]c(=O)c2C1c1cccs1 (stereo not given) | class 1
CC(=O)c1ccc(-n2c(-c3cc(-c4ccsc4)n[nH]3)n[nH]c2=S)cc1 | class 1
C/C(=N\OC(=O)Nc1cccc(Cl)c1)c1ccccc1 | class 1
O=C1C2=C(C(=O)c3c(O)ccc(O)c31)N(c1ccc(N3CCOCC3)nc1)Cc1ccccc1O2 | class 0

Is the recorded value of growth equal to or greater than 20% for this compound? CCN(CC)CCCC(C)Nc1cnc(C(=O)Nc2ccc(Cl)c3cccnc23)cn1 (stereo not given)
class 0

Hi team, for `SCc1ccc(CS)cc1` , is the recorded growth at or above 20%?
class 1
